ASSAY_DETAILS: NCI Yeast Anticancer Drug Screen. Data for the mlh1 rad18 strain (AID 175)
CONDITION_LABEL: S. cerevisiae mlh1 rad18 strain growth inhibition; at 5.0 µM (retest, dose inferred, filed as 0.5)
This is part of a sample that, as a whole, favours compounds with a hit. Of some 79,000 tested, about 15% had one in any assay. Active and inactive are the calls of the source. No stated cut-off is given here; in the data, active means growth inhibition above about 70%; inactive means the rest.
Return exactly one item of active, inactive

Example entries and their recorded answers appear below.
COMPOUND	LABEL_CLASS
CN=C(N)N/N=C(\C)c1ccc2c(ccc3ccccc32)c1	inactive
C[n+]1c(/C=C/c2ccc(N3CCCC3)cc2)sc2ccccc21	active
O=C(CC(=O)C(F)(F)F)c1ccc(-c2ccccc2)cc1	inactive
CCC1([N+](=O)[O-])COC(c2ccc3c(c2)OCO3)OC1 (stereo unspecified)	inactive
CC/C(=C\c1cccc(OC)c1)c1ccncc1	inactive

Q. How did this test come out for CCN(CC)CCNc1cc(C)nc2c1ccc1c2ccc2c(NCCN(CC)CC)cc(C)nc21 ?
A. inactive

Q. How did this test come out for ClC(Cl)(Cl)C1=CC2c3ccccc3C1c1ccccc12 ?
A. inactive

Q. How did this test come out for Cc1ccc2sc3ccc(N)cc3c(=O)c2c1 ?
A. inactive

----------
ASSAY_DETAILS: NCI Yeast Anticancer Drug Screen. Data for the mec2-1 strain (AID 157)
CONDITION_LABEL: S. cerevisiae mec2-1 strain, at 50.0 µM
The panel holds about 79,000 compounds, 15% with a hit somewhere; the sample as a whole holds those more often. Calls of active or inactive are those of the source. Cut-off read from the data, not from the text of the source: active = growth inhibition above about 70%; inactive = the rest.
Return exactly one item of active, inactive

Example entries and their recorded answers appear below.
COMPOUND	LABEL_CLASS
CCCCCCCCCCN(CCCCCCCCCC)C1CC(OC2CC(O)(C(O)CO)Cc3c(O)c4c(c(O)c32)C(=O)c2c(OC)cccc2C4=O)OC(C)C1O (stereo not given)	active
C=C(C)COc1ccccc1C(OCC)OCC	inactive
COc1ccc([N+](=O)[O-])cc1Nc1c2ccccc2nc2ccccc12	inactive
CCOC(=O)c1[nH]n(-c2ccccc2)c(=O)c1/C=N/C(=S)N=Nc1c(O)[nH]c2ccccc12	inactive
Cc1cc(Cl)ccc1NC(=O)CC1SC(=NC(=O)c2ccccc2Cl)NC1=O (stereo not given)	active

Q. How did this test come out for CC1(c2ccccc2)NC(=O)N(CC(=O)N(c2ccccc2)c2ccccc2)C1=O (stereo not given) ?
A. inactive

Q. How did this test come out for CN(C)c1ccc(/C=C/c2ccnc3ccccc23)c(O)c1 ?
A. inactive

Q. How did this test come out for CCCCCCOC(=O)C(N)Cc1ccc(OC)cc1 (stereo not given) ?
A. inactive

Q. How did this test come out for Nc1ccc2ccc3cccc4ccc1c2c34 ?
A. inactive

Q. How did this test come out for O=C(c1cccs1)N(C(=S)N1CCN(c2ccccn2)CC1)C1CCCCC1 ?
A. inactive

----------
ASSAY_DETAILS: NCI Yeast Anticancer Drug Screen. Data for the mec2-1 strain (AID 157)
CONDITION_LABEL: S. cerevisiae mec2-1 strain, at 50.0 µM (retest, dose inferred, filed as 5.0)
The panel holds about 79,000 compounds, 15% with a hit somewhere; the sample as a whole holds those more often. Calls of active or inactive are those of the source. No stated cut-off is given here; in the data, active means growth inhibition above about 70%; inactive means the rest.
Return exactly one item of True = active, False = inactive

Example entries and their recorded answers appear below.
MOLECULE	LABEL_CLASS
CCc1ccc(/C(C)=N/NC(N)=S)cc1	True
COc1ccc(C(c2c(O)c3ccccc3oc2=O)N2CCOCC2)c(OC)c1 (stereo unspecified)	False
Cc1cc(N(CCOS(C)(=O)=O)CCOS(C)(=O)=O)ccc1C=Nc1ccccc1C(=O)O	False
O=C(O)CCCCCCCCCCOc1ccc(Cl)cc1Cl	False

Q. How did this test come out for Nc1ccc2c(c1)S(=O)(=O)c1cc(N)ccc1-2 ?
A. False

Q. How did this test come out for S=c1sc2ccccc2n1C=Nc1ccccc1 ?
A. True
